biological target: D1 (Homo sapiens (Human), UniProt P21728); settings: read-out: Ki (nM) D1
metric.name: Ki (nM)
Give bare numbers, in nM.

Summary for this compound, O=C1CN2c3c(cccc3[C@@H]3CN(CCCC(=O)c4ccc(F)cc4)CC[C@@H]32)N1 [Example 1] : Ki is 22

====

assay: in vivo; details: mouse, plasma, sc, 0.1 mg/kg
metric.name: Tmax
Value and unit, in that order.

Input O=C1CN2c3c(cccc3[C@@H]3CN(CCCOc4ccc(F)cc4)CC[C@@H]32)N1 [Example 2] . Output Tmax: 30 min

====

experiment: in vivo; conditions: rat, iv, 1 mg/kg
metric.name: bioavailability

Lookup result for `O=C1CN2c3c(cccc3[C@@H]3CN(CCCOc4ccc(F)cc4)CC[C@@H]32)N1` ; measured bioavailability: 100%
